Task for the reader: assign each of the following binders its reported t½.
System Under Test: T1, mfGITR.mmh (Macaca fasicularis)
T1 construct: soluble monomeric construct; also called Macaca fasicularis (mf) GITR.mmh; cynomolgus GITR protein
T1 chain: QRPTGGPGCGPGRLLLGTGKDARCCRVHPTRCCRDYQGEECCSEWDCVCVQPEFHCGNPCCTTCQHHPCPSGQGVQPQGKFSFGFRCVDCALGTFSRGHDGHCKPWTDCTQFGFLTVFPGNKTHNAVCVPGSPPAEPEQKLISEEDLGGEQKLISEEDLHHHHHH
Method Summary: SPR 37C, mAb capture

q: Report t½ for H4H14525P (antibody, human IgG4, V domains shown, human IgG4 (H4H)) VH: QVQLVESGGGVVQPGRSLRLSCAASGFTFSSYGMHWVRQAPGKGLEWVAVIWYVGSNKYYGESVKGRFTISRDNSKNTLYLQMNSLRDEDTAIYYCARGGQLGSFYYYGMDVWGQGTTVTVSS VL: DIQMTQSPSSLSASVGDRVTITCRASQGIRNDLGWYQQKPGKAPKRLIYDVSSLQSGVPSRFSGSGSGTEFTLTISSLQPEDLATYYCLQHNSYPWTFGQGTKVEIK please.
a: 0.6 min

q: What does the data say about its t½? Entry: H4H14475P (antibody, human IgG4, V domains shown, human IgG4 (H4H)) VH: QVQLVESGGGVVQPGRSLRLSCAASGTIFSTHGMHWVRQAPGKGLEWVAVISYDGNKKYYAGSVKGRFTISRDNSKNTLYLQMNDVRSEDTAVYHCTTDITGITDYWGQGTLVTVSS VL: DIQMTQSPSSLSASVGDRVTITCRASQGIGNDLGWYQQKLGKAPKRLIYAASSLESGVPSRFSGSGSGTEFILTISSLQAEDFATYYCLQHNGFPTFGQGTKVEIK
a: 1.5 min

q: Using the record for H4H14508P (antibody, human IgG4, V domains shown, human IgG4 (H4H)) VH: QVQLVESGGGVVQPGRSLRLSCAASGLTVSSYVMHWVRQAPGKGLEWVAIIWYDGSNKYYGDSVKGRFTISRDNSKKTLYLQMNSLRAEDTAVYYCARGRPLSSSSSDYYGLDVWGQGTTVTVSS VL: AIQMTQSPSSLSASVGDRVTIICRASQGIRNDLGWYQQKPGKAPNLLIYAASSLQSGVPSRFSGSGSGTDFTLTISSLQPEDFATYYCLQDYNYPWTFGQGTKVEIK , report its t½.
a: 2.3 min

q: Would you mind telling me what t½ value was observed for H1H14523P (antibody, human IgG1, V domains shown, human IgG1 (H1H)) VH: QVQLVESGGGVVQPGRSLRLSCEASGFTFSSYGMHWVRQAPGKGLEWVAVIWYSESNKYYTDSMKGRLTISRDNSKNTLYLQMNSLRAEDTAVYYCARGGLLGKYYYYGMDVWGQGTTVTVSS VL: DIQMTQSPSSLSASVGDRVIITCRASQDIRNDLGWYQQKPGKAPKRLIYAASSLQSGVPSRFSGSGSGTEFTLTISSLQPEDFATFYCLQLNSYPYTFGQGTKLEIK ?
a: 1.1 min

Give me t½ for each of these binders, listed below.
1. H4H14476P (antibody, human IgG4, V domains shown, human IgG4 (H4H)) VH: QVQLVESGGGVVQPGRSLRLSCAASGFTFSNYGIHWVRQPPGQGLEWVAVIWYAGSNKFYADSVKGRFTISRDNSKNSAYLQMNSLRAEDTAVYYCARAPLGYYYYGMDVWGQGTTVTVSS VL: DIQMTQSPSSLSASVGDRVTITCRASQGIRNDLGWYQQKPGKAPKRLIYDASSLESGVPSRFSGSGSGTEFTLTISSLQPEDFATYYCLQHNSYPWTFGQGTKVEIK
2. H4H14516P (antibody, human IgG4, V domains shown, human IgG4 (H4H)) VH: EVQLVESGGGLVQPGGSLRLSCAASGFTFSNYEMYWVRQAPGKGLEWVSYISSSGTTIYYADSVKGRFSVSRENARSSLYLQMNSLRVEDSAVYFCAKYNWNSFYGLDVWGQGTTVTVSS VL: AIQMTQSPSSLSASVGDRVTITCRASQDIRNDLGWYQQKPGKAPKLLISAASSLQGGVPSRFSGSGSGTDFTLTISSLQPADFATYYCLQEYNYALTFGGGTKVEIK

a:
["1.1 min", "1 min"]
